target of assay: human salivary α-amylase (HSA) (Homo sapiens)
assay overview: Determination of Ki against human saliva α-amylase (Morrison)
Type: biochemical
applied conditions: 37 °C, 50 mM sodium phosphate, 100 mM NaCl, pH 7.0; CNPG3 3.3 mM (KM 3.4 mM), nominal [E] 100 nM; 10 min pre-incubation; 405 nm; Morrison fit, competitive mode assumed; mean ± SE (n = 3); read-out: Ki against HSA
Bridge positions count the residues as written; N and C are the ends. Ends that are not written are not given here.

[
  {
    "sequence text": "SEGTSCYIYHGVYGICKAKCAEDMKAMAGMGVCEGDLCCYKTPW (disulfide 6-38, 16-33, 20-39) [r-magnificamide]",
    "Ki (nM)": 7.7
  }
]

====

target of assay: porcine pancreatic α-amylase (PPA) (Sus scrofa)
Construct: purchased Sigma Aldrich A4268
Sequence (P00690 16-511): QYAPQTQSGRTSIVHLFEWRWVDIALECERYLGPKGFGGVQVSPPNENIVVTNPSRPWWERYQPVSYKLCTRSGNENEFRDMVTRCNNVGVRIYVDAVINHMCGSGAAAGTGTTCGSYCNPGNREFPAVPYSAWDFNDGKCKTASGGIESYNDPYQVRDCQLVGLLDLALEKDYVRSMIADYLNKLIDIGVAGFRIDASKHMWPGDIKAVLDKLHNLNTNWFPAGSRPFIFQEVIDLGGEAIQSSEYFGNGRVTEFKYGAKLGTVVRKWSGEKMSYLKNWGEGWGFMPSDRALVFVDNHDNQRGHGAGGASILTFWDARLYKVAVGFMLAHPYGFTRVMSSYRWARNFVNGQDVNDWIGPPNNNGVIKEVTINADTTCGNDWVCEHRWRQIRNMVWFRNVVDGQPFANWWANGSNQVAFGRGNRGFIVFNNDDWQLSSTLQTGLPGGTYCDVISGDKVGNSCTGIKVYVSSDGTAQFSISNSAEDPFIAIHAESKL
assay overview: Determination of Ki against porcine pancreatic α-amylase (Morrison)
Type: biochemical
applied conditions: 37 °C, 50 mM sodium phosphate, 100 mM NaCl, pH 7.0; CNPG3 1 mM (KM 0.71 mM), nominal [E] 20 nM; 10 min pre-incubation; 405 nm; Morrison fit, competitive mode assumed; mean ± SE (n = 3)
Bridge positions count the residues as written; N and C are the ends. Ends that are not written are not given here.

[
  {
    "sequence text": "SEGTSCYIYHGVYGICKAKCAEDMKAMAGMGVCEGDLCCYKTPW (disulfide 6-38, 16-33, 20-39) [r-magnificamide]",
    "target of assay": "porcine pancreatic α-amylase (PPA) (Sus scrofa)",
    "unit spec": "pM",
    "Ki": 170
  }
]

====

target of assay: human salivary α-amylase (HSA) (Homo sapiens, UniProt P0DUB6)
Sequence (P0DUB6 16-511): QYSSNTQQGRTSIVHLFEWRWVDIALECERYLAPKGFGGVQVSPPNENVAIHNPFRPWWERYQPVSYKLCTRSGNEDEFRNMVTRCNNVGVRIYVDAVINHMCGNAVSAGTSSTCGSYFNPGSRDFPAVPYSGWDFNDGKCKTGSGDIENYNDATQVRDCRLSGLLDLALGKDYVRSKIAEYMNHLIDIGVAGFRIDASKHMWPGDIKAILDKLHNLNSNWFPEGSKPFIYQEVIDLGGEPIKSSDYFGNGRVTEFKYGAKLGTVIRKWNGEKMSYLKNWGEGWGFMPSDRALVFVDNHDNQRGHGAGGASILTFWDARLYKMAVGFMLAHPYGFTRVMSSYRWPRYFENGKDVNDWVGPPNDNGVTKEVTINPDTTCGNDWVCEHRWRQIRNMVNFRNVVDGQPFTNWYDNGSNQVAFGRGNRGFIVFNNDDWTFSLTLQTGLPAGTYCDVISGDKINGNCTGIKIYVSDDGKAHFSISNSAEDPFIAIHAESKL
assay overview: Determination of Ki against human saliva α-amylase (Morrison)
Format: biochemical
applied conditions: pH 7, Table 5 summary, own value; 37 °C, pH 7.0, CNPG3, Morrison fit; read-out: Ki, M (HSA) (converted)
Bridge positions count the residues as written; N and C are the ends. Ends that are not written are not given here.
quantity name: Ki

[
  {
    "sequence text": "SEGTSCYIYHGVYGICKAKCAEDMKAMAGMGVCEGDLCCYKTPW (disulfide 6-38, 16-33, 20-39) [Magnificamide]",
    "quantity name": "Ki",
    "endpoint result": "7.7 nM"
  }
]
